target: human PAR4 (Homo sapiens); test: PAR4 FLIPR assay: antagonism of agonist-peptide-induced calcium mobilization in PAR4-expressing HEK293 cells; conditions: H-Ala-Phe(4-F)-[…]NH2-induced intracellular calcium mobilization, 11-point curves
Sequence (Q96RI0 18-385): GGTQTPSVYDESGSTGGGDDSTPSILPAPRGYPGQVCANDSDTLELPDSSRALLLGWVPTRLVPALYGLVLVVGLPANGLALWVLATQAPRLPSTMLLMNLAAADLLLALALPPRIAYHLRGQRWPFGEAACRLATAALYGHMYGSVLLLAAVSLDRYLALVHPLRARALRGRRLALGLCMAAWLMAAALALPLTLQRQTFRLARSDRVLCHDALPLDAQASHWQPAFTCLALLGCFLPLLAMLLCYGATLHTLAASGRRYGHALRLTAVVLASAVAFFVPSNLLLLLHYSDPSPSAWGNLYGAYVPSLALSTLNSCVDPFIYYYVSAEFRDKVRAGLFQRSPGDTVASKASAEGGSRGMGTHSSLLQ
Binary call on IC50 with cut-off 2 nM: strictly below means yes, and equality or higher means no.

# example entries with known answers
>>> group_label("COc1cnc2c(-c3nc4cc(F)c(O[C@@H](C)[C@@H](C)OC(=O)Nc5cnc(OC)nc5)nc4s3)cc(C)cc2n1")
"no"
>>> group_label("COCc1cnc2c(-c3nc4cc(F)c(OC(C)C)cc4s3)cc(C)cc2n1")
"yes"
>>> group_label("COc1cc(C(O)C(C)(C)C)c2nc(-c3cc(C#N)cc4nc(OC)cnc34)sc2c1 (stereo not drawn)")
"yes"
>>> group_label("COc1cnc2c(-c3nc4cc(F)c(OC[C@@H](C)OC(=O)Nc5cnc(C)nc5)nc4s3)cc(C)cc2n1")
"yes"
>>> group_label("COC(C)c1cnc2c(-c3cc4ccccc4o3)cc(C)cc2n1 (stereo not drawn)")
"no"
>>> group_label("COCc1cnc2c(-c3nc4c(C5CC5)cc(OCCNS(=O)(=O)c5ccc(F)cc5)cc4s3)cc(C)cc2n1")
"no"
>>> group_label("COc1cnc2c(-c3nc4cc(F)c(O[C@@H](C)[C@@H](C)OC(=O)Nc5cnc(N(C)S(C)(=O)=O)nc5)cc4s3)cc(C)cc2n1")
"yes"
>>> group_label("Cc1ccc2sc(-c3cc(C)cc4nc(OC(F)F)cnc34)nc2c1")
"no"
>>> group_label("COc1cnc2c(-c3nc4cc(F)c(O[C@@H](C)[C@@H](C)OC(=O)Nc5ccc(C(=O)N(C)C)nc5)cc4s3)cc(Cl)cc2n1")
"no"
>>> group_label("Cc1cc(-c2nc3c(F)cc(OCCNS(=O)(=O)c4ccccc4)cc3s2)c2ncc(OC(F)F)nc2c1")
"no"

Exercise: Is IC50 strictly under 2 nM for the entry COc1cnc2c(-c3nc4c(Cl)c(F)c(OC[C@@H](C)OC(=O)Nc5cnc6c(c5)CC=N6)cc4s3)cc(C)cc2n1 ?
Key: yes

Exercise: Is IC50 strictly under 2 nM for the entry COc1ccc2nc(-c3cc(C)cc4nc(OC(F)F)cnc34)sc2n1 ?
Key: no

Exercise: Is IC50 strictly under 2 nM for the entry COc1cnc2c(-c3nc4c(C)c(C)c(OC)cc4s3)cc(CO)cc2n1 ?
Key: no

Exercise: Is IC50 strictly under 2 nM for the entry CNC(=O)c1ncc(NC(=O)O[C@H](C)[C@H](C)Oc2cc3sc(-c4cc(C)cc5nc(OC)cnc45)nc3cc2F)cn1 ?
Key: yes

Exercise: Is IC50 strictly under 2 nM for the entry COc1ccc(NC(=O)O[C@H](C)[C@H](C)Oc2cc3sc(-c4cc(Cl)cc5nc(OC)cnc45)nc3cc2F)cn1 ?
Key: no
